This section presents binders with their documented Kd values.
Target: T1, PUF4 RNA-binding domain (Saccharomyces cerevisiae, UniProt P25339 537-888)
T1 sequence: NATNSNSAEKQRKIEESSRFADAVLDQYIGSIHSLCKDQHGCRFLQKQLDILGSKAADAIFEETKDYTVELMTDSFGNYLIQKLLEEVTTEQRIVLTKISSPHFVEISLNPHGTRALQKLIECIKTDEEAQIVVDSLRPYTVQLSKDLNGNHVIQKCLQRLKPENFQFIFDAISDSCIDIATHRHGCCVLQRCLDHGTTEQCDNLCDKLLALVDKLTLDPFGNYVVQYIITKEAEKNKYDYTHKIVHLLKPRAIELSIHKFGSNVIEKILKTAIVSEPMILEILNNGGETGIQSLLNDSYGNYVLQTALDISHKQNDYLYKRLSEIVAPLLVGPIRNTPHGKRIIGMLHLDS
Assay: Mg; RNA-MaP; 20 mM Na-HEPES pH 7.4, 30 mM KOAc, 0.75 mM MgCl2, 0.1% Tween-20, 5% glycerol, 0.1 mg/mL BSA, 2 mM DTT; 25 C; 0.0125-409.6 nM protein
Details: tags: N-His6-TEV cleaved; C-SNAP kept, Cy3B-labelled; label: tethered on chip by stalled RNA polymerase
Numeric only. Scale: nM

Field: example entries. Status: answers known.
[
  {
    "binder": "UCUCUUUUUGUAUAUUAAAUCUCUU (ssRNA) [Id_ii_S1_P4E.2_K4.1_C4.2_[C-2T]_H4.1_A4.1_F4.1_T4.2_[G10A]_[T11A]]",
    "Kd [nM]": 1.21
  },
  {
    "binder": "UCUCUUUGUAUAUGGUCUCUU (ssRNA) [Ib_S1_P4E.1_K4.1_C4.1_H4.1_A4.1_F4.1_[T8G]_[A9G]_T4.1]",
    "Kd [nM]": 47.2
  },
  {
    "binder": "Id_ii_S2_P5E.2_K5.1_C5.2_[C-2T]_[T-1A]_H5.1_A5.1_F5.1_T5.2_[T11G]_[A12T] (ssRNA) RNA: UUUGAUUAAUAUGAUAUCGUUCUUUCUUAUGUAUUAUUAGUUUCUUUCUCGAUAUCAUAUUAAUCUUU",
    "Kd [nM]": 4.78
  },
  {
    "binder": "Ia_S2_P4E.1_K4.1_C4.1_H4.1_A4.1_[T7G]_F4.1_T4.1 (ssRNA) RNA: UUUGAUUAAUAUGAUAUCGUUCUUUCUUGUAUAGUAUUCUUUCUCGAUAUCAUAUUAAUCUUU",
    "Kd [nM]": 1.05
  }
]

Can you look up the measured Kd of Id_iii_S2_P4E.6_K4.2_C4.3_H4.2_A4.1_F4.1_T4.2_[G10A] (ssRNA) RNA: UUUGAUUAAUAUGAUAUCGUUCUUUCUUCUUAUAUAUUAAUUUCUUUCUCGAUAUCAUAUUAAUCUUU for me?
10.7

Reference source: paper PMC9352680
